Source: patent US20240415914A1

# Assay type: physicochemical
# SETTINGS: stored at room temperature (21-25° C.), day 2
MEASURED ENDPOINT: Stability in Powder Concentrate (content by LCMSMS) (mg/g powder)
Expressed in mg/g powder, but write only the number.

Here's what some known entries look like.
CCCCCc1cc(O)c2c(c1)OC(C)(C)c1ccc(C)cc1-2 = 0.488
CCCCCc1cc(O)c2c(c1)OC1(C)CCC3C1C2C3(C)C (centres unmarked) = 0.049
CCCCCc1cc(O)c(C/C=C(\C)CCC=C(C)C)c(O)c1 = 1.08
C=C(C)[C@@H]1CCC(C)=C[C@H]1c1c(O)cc(CCC)cc1O = 0.051

Here's the next entry for you.
// query Stability in Powder Concentrate (content by LCMSMS) value for entry CCCCCc1cc(O)c2c(c1)OC(C)(CCC=C(C)C)C=C2 (centres unmarked)
0.071

* * *

// Stability of Cannabinoids in AB Red lookup, one value per entry
# TEST DETAILS: Stability of cannabinoid and Vitamin E components of Beverage 2 (AB Red) stored at 8° C. and 21-25° C., LCMSMS over 570 days
# SETTINGS: 8° C., 450 days
Number first, unit second: that is the form wanted.

CCCCCc1cc2c(c(O)c1C(=O)O)[C@@H]1C=C(C)CC[C@H]1C(C)(C)O2 [D9 THCA, delta-9-tetrahydrocannabinolic acid] = 1.31 µg/mL
CCCCCc1cc(O)c2c(c1)OC1(C)CCC3C1C2C3(C)C (centres unmarked) = 0.492 µg/mL
CCCc1cc(O)c2c(c1)OC(C)(C)[C@@H]1CCC(C)=C[C@@H]21 [THCV, delta-9-tetrahydrocannabivarin] = 3.08 µg/mL
CCCCCc1cc(O)c2c(c1)OC(C)(CCC=C(C)C)C=C2 (centres unmarked) = 0.282 µg/mL

# lookup: Stability of Cannabinoids in AB Red of CCCCCc1cc(O)c2c(c1)OC(C)(C)c1ccc(C)cc1-2
2.71 µg/mL

* * *

# TEST DETAILS: Stability of cannabinoid and Vitamin E components of Beverage 2 (AB Red) stored at 8° C. and 21-25° C., LCMSMS over 570 days
# SETTINGS: 21-25° C., 420 days
Param threshold (1 µg/mL) applies to Stability of Cannabinoids in AB Red; output 1 when value >= threshold, 0 when value < threshold.

Examples from the recorded data:
CCCCCc1cc(O)c2c(c1)OC(C)(C)[C@@H]1CCC(C)=C[C@@H]21 [D9 THC, delta-9-tetrahydrocannabinol, reference compound] = 1
CCCCCc1cc2c(c(O)c1C(=O)O)[C@@H]1C=C(C)CC[C@H]1C(C)(C)O2 [D9 THCA, delta-9-tetrahydrocannabinolic acid] = 1
CCCCCc1cc(O)c2c(c1)OC(C)(CCC=C(C)C)C=C2 (stereo not drawn) = 0
C=C(C)[C@@H]1CCC(C)=C[C@H]1c1c(O)cc(CCC)cc1O = 0
CCCCCc1cc(O)c(C/C=C(\C)CCC=C(C)C)c(O)c1 = 1

Exam item: decide whether the reported Stability of Cannabinoids in AB Red for CCCc1cc(O)c2c(c1)OC(C)(C)[C@@H]1CCC(C)=C[C@@H]21 [THCV, delta-9-tetrahydrocannabivarin] is at least 1 µg/mL.
1

Does Stability of Cannabinoids in AB Red meet or surpass 1 µg/mL for CCCCCc1cc(O)c2c(c1)OC(C)(C)c1ccc(C)cc1-2 ?
1

Determine whether measured Stability of Cannabinoids in AB Red meets or exceeds 1 µg/mL for CCCCCc1cc(O)c2c(c1)OC1(C)CCC3C1C2C3(C)C (stereo not drawn)
0

Threshold query (Stability of Cannabinoids in AB Red >= 1 µg/mL) on C=C(C)[C@@H]1CCC(C)=C[C@H]1c1c(O)cc(CCCCC)c(C(=O)O)c1O
1

* * *

# Type: physicochemical
# SETTINGS: stored at room temperature (21-25° C.), day 12
Rule for this label: true (1) means Stability in Powder Concentrate (content by LCMSMS) is less than 0.7 mg/g powder; false (0) means Stability in Powder Concentrate (content by LCMSMS) is at least 0.7 mg/g powder.

C=C(C)[C@@H]1CCC(C)=C[C@H]1c1c(O)cc(CCCCC)c(C(=O)O)c1O = true (1)

Check if Stability in Powder Concentrate (content by LCMSMS) falls below 0.7 mg/g powder for CCCCCc1cc(O)c2c(c1)OC(C)(CCC=C(C)C)C=C2 (stereo not drawn) .
true (1)

For this molecule, is Stability in Powder Concentrate (content by LCMSMS) lower than 0.7 mg/g powder? CC(=O)Oc1c(C)c(C)c2c(c1C)CCC(C)(CCC[C@H](C)CCC[C@H](C)CCCC(C)C)O2 (stereo partly drawn) [α-Tocopheryl acetate]
false (0)

is_below(Stability in Powder Concentrate (content by LCMSMS), 0.7 mg/g powder) for Cc1c(C)c2c(c(C)c1OC(=O)CCC(=O)O)CC[C@@](C)(CCC[C@H](C)CCC[C@H](C)CCCC(C)C)O2 [α-Tocopheryl succinate] ?
false (0)

Stability in Powder Concentrate (content by LCMSMS) strictly < 0.7 mg/g powder for this molecule? CCCCCc1cc(O)c(C/C=C(\C)CCC=C(C)C)c(O)c1
false (0)

* * *

# TEST DETAILS: Stability of cannabinoid and Vitamin E components of Beverage 2 (AB Red) stored at 8° C. and 21-25° C., LCMSMS over 570 days
# SETTINGS: 21-25° C., 9 days
MEASURED ENDPOINT: Stability of Cannabinoids in AB Red (µg/mL)
Value expressed in µg/mL; do not type the unit.

CCCc1cc(O)c2c(c1)OC(C)(C)[C@@H]1CCC(C)=C[C@@H]21 [THCV, delta-9-tetrahydrocannabivarin] = 3.17
CCCCCc1cc(O)c2c(c1)OC(C)(CCC=C(C)C)C=C2 (stereo not drawn) = 0.28
CCCCCc1cc(O)c2c(c1)OC(C)(C)[C@@H]1CCC(C)=C[C@@H]21 [D9 THC, delta-9-tetrahydrocannabinol, reference compound] = 12.8
CCCCCc1cc(O)c2c(c1)OC1(C)CCC3C1C2C3(C)C (stereo not drawn) = 0.51
C=C(C)[C@@H]1CCC(C)=C[C@H]1c1c(O)cc(CCC)cc1O = 0.20
C=C(C)[C@@H]1CCC(C)=C[C@H]1c1c(O)cc(CCCCC)c(C(=O)O)c1O = 1.63
CCCCCc1cc(O)c2c(c1)OC(C)(C)c1ccc(C)cc1-2 = 2.72
CCCCCc1cc2c(c(O)c1C(=O)O)[C@@H]1C=C(C)CC[C@H]1C(C)(C)O2 [D9 THCA, delta-9-tetrahydrocannabinolic acid] = 1.35

Okay, next one:
Which Stability of Cannabinoids in AB Red is reported for this compound? CCCCCc1cc(O)c(C/C=C(\C)CCC=C(C)C)c(O)c1
4.74

* * *

# TEST DETAILS: Stability of cannabinoid and Vitamin E components of Beverage 1 (AB White) stored at 8° C. and 21-25° C., LCMSMS over 570 days
# Format: physicochemical
# SETTINGS: beverage stored at 8° C., day 5
MEASURED ENDPOINT: Stability in AB White, 8° C. (content by LCMSMS)

CCCCCc1cc(O)c2c(c1)OC1(C)CCC3C1C2C3(C)C (stereo not shown) = 0.552 µg/mL
CCCCCc1cc(O)c(C/C=C(\C)CCC=C(C)C)c(O)c1 = 4.88 µg/mL
CCCCCc1cc(O)c2c(c1)OC(C)(CCC=C(C)C)C=C2 (stereo not shown) = 0.322 µg/mL

Quick one: Stability in AB White, 8° C. (content by LCMSMS) of C=C(C)[C@@H]1CCC(C)=C[C@H]1c1c(O)cc(CCCCC)cc1O [CBD, cannabidiol, reference compound] ?
28.61 µg/mL

For the compound shown here, CCCc1cc(O)c2c(c1)OC(C)(C)[C@@H]1CCC(C)=C[C@@H]21 [THCV, delta-9-tetrahydrocannabivarin] , give the reported Stability in AB White, 8° C. (content by LCMSMS).
3.58 µg/mL

Bench note: what Stability in AB White, 8° C. (content by LCMSMS) did CCCCCc1cc(O)c2c(c1)OC(C)(C)[C@@H]1CCC(C)=C[C@@H]21 [D9 THC, delta-9-tetrahydrocannabinol, reference compound] show?
12.11 µg/mL

Fill in: Stability in AB White, 8° C. (content by LCMSMS) of CCCCCc1cc2c(c(O)c1C(=O)O)[C@@H]1C=C(C)CC[C@H]1C(C)(C)O2 [D9 THCA, delta-9-tetrahydrocannabinolic acid] is ___
0.956 µg/mL

Entry C=C(C)[C@@H]1CCC(C)=C[C@H]1c1c(O)cc(CCC)cc1O : reported Stability in AB White, 8° C. (content by LCMSMS) = ?
0.147 µg/mL

May I ask what Stability in AB White, 8° C. (content by LCMSMS) has been recorded for C=C(C)[C@@H]1CCC(C)=C[C@H]1c1c(O)cc(CCCCC)c(C(=O)O)c1O ?
1.71 µg/mL

For the compound shown here, CCCCCc1cc(O)c2c(c1)OC(C)(C)c1ccc(C)cc1-2 , give the reported Stability in AB White, 8° C. (content by LCMSMS).
2.76 µg/mL
